Property: IC50; scope: individual compounds
Test system: Guinea-pig ileum strips, histamine-induced contraction
Experiment: Anti-histamine activity in "vitro": histamine-induced spasms of guinea-pig ileum strips
Type: cell-based
Conditions: Cavia porcellus, 5 min; Table I-e; histamine 0.5 mg/liter, 5 minutes incubation; concentration giving significant inhibition (50%) of the contraction; read-out: Histamine in "vitro" (ileum) effective dose
MEASUREMENT_NAME: IC50 (µg/mL)

COMPOUND | MEASUREMENT_NAME | RESULT_UNIT | TEST_RESULT
Cc1ccc(C)c(C(c2ccccc2)N2CCN(CCCn3c(=O)[nH]c4ccccc43)CC2)c1 (stereo not drawn) | IC50 | µg/mL | 0.16
O=c1[nH]c2ccccc2n1CCCN1CCN(C(c2ccc(Cl)cc2)c2cccnc2)CC1 (stereo not drawn) | IC50 | µg/mL | 0.08
O=c1[nH]c2ccccc2n1CCCN1CCN(C(c2ccncc2)c2ccc(F)cc2)CC1 (stereo not drawn) | IC50 | µg/mL | 0.16
O=c1[nH]c2ccccc2n1CCCN1CCN(C(c2ccccc2)c2ccccn2)CC1 (stereo not drawn) | IC50 | µg/mL | 0.16
O=c1[nH]c2ccccc2n1CCCN1CCN(C(c2ccc(F)cc2)c2cccnc2)CC1 (stereo not drawn) | IC50 | µg/mL | 0.08
O=c1[nH]c2ccccc2n1CCCN1CCN(C(c2ccccc2)c2cccnc2)CC1 (stereo not drawn) | IC50 | µg/mL | 0.08

====

Tested on: Guinea-pig ileum strips, histamine-induced contraction
Test: Anti-histamine activity in "vitro": histamine-induced spasms of guinea-pig ileum strips
Type: cell-based
Details: Cavia porcellus, 5 min; Table I-a; histamine 0.5 mg/liter, 5 minutes incubation; concentration giving significant inhibition (50%) of the contraction; read-out: Histamine in "vitro" (ileum) effective conc.
Reported IC50 values for a set of molecules

CHEM_SMILES | TEST_SYSTEM | RESULT_MODIFIER | IC50, mg/L
O=c1[nH]c2ccccc2n1CCCCCN1CCN(C(c2ccccc2)c2ccccc2)CC1 | Guinea-pig ileum strips, histamine-induced contraction | = | 0.01
CC(=O)n1c(=O)n(CCCN2CCN(C(c3ccccc3)c3ccccc3)CC2)c2ccccc21 | Guinea-pig ileum strips, histamine-induced contraction | = | 0.005
O=c1[nH]c2cc(Cl)c(Cl)cc2n1CCCN1CCN(C(c2ccccc2)c2ccccc2)CC1 | Guinea-pig ileum strips, histamine-induced contraction | ≥ | 0.16
O=c1[nH]c2cc(C(F)(F)F)ccc2n1CCN1CCN(C(c2ccccc2)c2ccccc2)CC1 | Guinea-pig ileum strips, histamine-induced contraction | = | 0.02

====

Listing of recorded minimal effective dose by entry.
Tested on: histamine paw oedema in guinea pigs
Experiment: Histamine paw oedema in guinea pigs
Assay type: in vivo, guinea pig
Details: Cavia porcellus; Table I-e; oral dose giving paw reaction below 10 units 10 minutes after 50 μg histamine s.p., 2 hours after dosing; read-out: Anaphylaxis in guinea pigs oral effective dose in mg/kg: Histamine oedema

COMPOUND | RESULT_MODIFIER | minimal effective dose (mg/kg)
O=c1[nH]c2ccccc2n1CCCN1CCN(C(c2ccc(Cl)cc2)c2cccnc2)CC1 (centres unmarked) | = | 2.5
O=c1[nH]c2ccccc2n1CCCN1CCN(C(c2ccccc2)c2cccnc2)CC1 (centres unmarked) | < | 2.5
O=c1[nH]c2ccccc2n1CCCN1CCN(C(c2ccncc2)c2ccc(F)cc2)CC1 (centres unmarked) | ≤ | 2.5
O=c1[nH]c2ccccc2n1CCCN1CCN(C(c2ccccc2)c2ccccn2)CC1 (centres unmarked) | = | 2.5
O=c1[nH]c2ccccc2n1CCCN1CCN(C(c2ccc(F)cc2)c2cccnc2)CC1 (centres unmarked) | < | 2.5

====

Tested on: Guinea-pig ileum strips, histamine-induced contraction
Experiment: Anti-histamine activity in "vitro": histamine-induced spasms of guinea-pig ileum strips
Type: cell-based
Conditions: Cavia porcellus, 5 min; Table I-a; histamine 0.5 mg/liter, 5 minutes incubation; concentration giving significant inhibition (50%) of the contraction; read-out: Histamine in "vitro" (ileum) effective conc.
MEASUREMENT_NAME: log10 of IC50 (log10 of the value in µg/mL)

COMPOUND | TEST_RESULT
O=c1[nH]c2ccccc2n1CCCCCN1CCN(C(c2ccc(F)cc2)c2ccc(F)cc2)CC1 | -2.00
O=c1[nH]c2ccccc2n1CCCN1CCN(C(c2ccccc2)c2ccccc2F)CC1 (stereo not drawn) | -1.70
O=c1[nH]c2ccccc2n1CCCN1CCN(C(c2ccccc2)c2ccccc2)CC1 | -2.30
Cc1ccc(C(c2ccc(F)cc2)N2CCN(CCCn3c(=O)[nH]c4ccccc43)CC2)cc1 (stereo not drawn) | -0.80
Cc1ccc(C(c2ccccc2)N2CCN(CCCn3c(=O)[nH]c4ccccc43)CC2)cc1 (stereo not drawn) | -1.10
O=c1[nH]c2ccccc2n1CCCCN1CCN(C(c2ccccc2)c2ccccc2)CC1 | -2.00
O=c1[nH]c2ccccc2n1CCN1CCN(C(c2ccccc2)c2ccc(F)cc2)CC1 (stereo not drawn) | -1.70
O=c1n(CCCN2CCN(C(c3ccccc3)c3ccccc3)CC2)c2ccc(Cl)cc2n1-c1ccccc1 | -1.10
O.O=c1[nH]c2ccc(Cl)cc2n1CCCN1CCN(C(c2ccc(F)cc2)c2ccc(F)cc2)CC1 | -1.70

====

Test system: Guinea pigs sensitized to ovalbumin (anaphylactic shock)
Assay: Anaphylaxis in guinea pigs: protection against death after ovalbumin challenge (survival)
Format: in vivo, guinea pig
Conditions: Cavia porcellus; Table I-a; estimated ED50, oral; protection against death after i.v. 0.6 mg ovalbumin; read-out: Anaphylaxis in guinea pigs oral effective dose in mg/kg: Survival
MEASUREMENT_NAME: log10(ED50) (log10 of the value in mg/kg)

COMPOUND | log10(ED50)
Cn1c(=O)n(CCCN2CCN(C(c3ccccc3)c3ccccc3)CC2)c2ccccc21 [hydrate] | 0.10
O=c1[nH]c2ccc(Cl)cc2n1CCN1CCN(C(c2ccccc2)c2ccccc2)CC1 | 0.40
O=c1[nH]c2ccccc2n1CCCN1CCN(C(c2ccccc2)c2ccc(F)cc2)CC1 (stereo not drawn) | -0.51
Cc1ccc2c(c1)[nH]c(=O)n2CCCN1CCN(C(c2ccccc2)c2ccccc2)CC1 | -1.10
O=c1[nH]c2ccccc2n1CCCN1CCN(C(c2ccc(Cl)cc2)c2ccccc2F)CC1 (stereo not drawn) | -0.51
O=c1[nH]c2ccccc2n1CCCN1CCN(C(c2ccccc2)c2cccc(Cl)c2)CC1 (stereo not drawn) | -0.20
O=c1[nH]c2cc(C(F)(F)F)ccc2n1CCN1CCN(C(c2ccccc2)c2ccccc2)CC1 | -0.51
O=c1[nH]c2ccccc2n1CCCCCCN1CCN(C(c2ccccc2)c2ccccc2)CC1 | 0.10
O=c1[nH]c2ccccc2n1CCCCN1CCN(C(c2ccc(F)cc2)c2ccc(F)cc2)CC1 | -0.80
CC(=O)n1c(=O)n(CCCN2CCN(C(c3ccccc3)c3ccccc3)CC2)c2ccccc21 | -1.00
O.O=c1[nH]c2ccc(Cl)cc2n1CCCN1CCN(C(c2ccc(F)cc2)c2ccc(F)cc2)CC1 | -0.20
O=c1[nH]c2ccc(Cl)cc2n1CCCN1CCN(C(c2ccccc2)c2ccccc2)CC1 | -0.20
C=C(C)n1c(=O)n(CCCN2CCN(C(c3ccccc3)c3ccccc3)CC2)c2ccccc21 | -0.80
O=c1[nH]c2cc(Cl)ccc2n1CCCN1CCN(C(c2ccc(F)cc2)c2ccc(F)cc2)CC1 | 0.10
O=c1[nH]c2cc(Cl)c(Cl)cc2n1CCCN1CCN(C(c2ccccc2)c2ccccc2)CC1 | 0.40

====

Item-by-item account of IC50
Tested on: Guinea-pig ileum strips, histamine-induced contraction
Test: Anti-histamine activity in "vitro": histamine-induced spasms of guinea-pig ileum strips
Type: cell-based
Details: Cavia porcellus, 5 min; Table I-a; histamine 0.5 mg/liter, 5 minutes incubation; concentration giving significant inhibition (50%) of the contraction; read-out: Histamine in "vitro" (ileum) effective conc.

COMPOUND | IC50, µg/mL
O=c1[nH]c2ccccc2n1CCCN1CCN(C(c2ccc(Cl)cc2)c2ccccc2F)CC1 (centres unmarked) | 0.02
O=c1[nH]c2cc(Cl)ccc2n1CCCN1CCN(C(c2ccccc2)c2ccccc2)CC1 | 0.01
O=c1[nH]c2ccc(Cl)cc2n1CCN1CCN(C(c2ccccc2)c2ccccc2)CC1 | 0.02
O=c1[nH]c2cc(Cl)ccc2n1CCCN1CCN(C(c2ccc(F)cc2)c2ccc(F)cc2)CC1 | 0.04
O=c1[nH]c2ccccc2n1CCCN1CCN(C(c2ccccc2)c2ccc([N+](=O)[O-])cc2)CC1 (centres unmarked) | 0.16

====

Test system: Guinea pigs sensitized to ovalbumin (anaphylactic shock)
Assay: Anaphylaxis in guinea pigs: protection against death after ovalbumin challenge (survival)
Format: in vivo, guinea pig
Details: Cavia porcellus; Table I-a; estimated ED50, oral; protection against death after i.v. 0.6 mg ovalbumin; read-out: Anaphylaxis in guinea pigs oral effective dose in mg/kg: Survival
ED50 for assorted compounds

COMPOUND | TEST_SYSTEM | RESULT_UNIT | RESULT_MODIFIER | ED50
Cc1ccc(C(c2ccc(F)cc2)N2CCN(CCCn3c(=O)[nH]c4ccccc43)CC2)cc1 (stereo not drawn) | Guinea pigs sensitized to ovalbumin (anaphylactic shock) | mg/kg | < | 2.5
O=c1n(CO)c2ccccc2n1CCCN1CCN(C(c2ccccc2)c2ccccc2)CC1 | Guinea pigs sensitized to ovalbumin (anaphylactic shock) | mg/kg | = | 0.31
O=c1[nH]c2ccccc2n1CCCN1CCN(C(c2ccc(F)cc2)c2ccc(F)cc2)CC1 | Guinea pigs sensitized to ovalbumin (anaphylactic shock) | mg/kg | = | 0.31
O=c1[nH]c2ccccc2n1CCCN1CCN(C(c2ccccc2)c2ccc([N+](=O)[O-])cc2)CC1 (stereo not drawn) | Guinea pigs sensitized to ovalbumin (anaphylactic shock) | mg/kg | < | 2.5
O=c1[nH]c2ccccc2n1CCCCCN1CCN(C(c2ccc(F)cc2)c2ccc(F)cc2)CC1 | Guinea pigs sensitized to ovalbumin (anaphylactic shock) | mg/kg | = | 1.25
CCOC(=O)CCn1c(=O)n(CCCN2CCN(C(c3ccccc3)c3ccccc3)CC2)c2ccccc21 [dihydrate] | Guinea pigs sensitized to ovalbumin (anaphylactic shock) | mg/kg | = | 0.63
Cc1ccc2c(c1)[nH]c(=O)n2CCN1CCN(C(c2ccccc2)c2ccccc2)CC1 | Guinea pigs sensitized to ovalbumin (anaphylactic shock) | mg/kg | = | 1.25
O=c1[nH]c2ccccc2n1CCN1CCN(C(c2ccccc2)c2ccc(F)cc2)CC1 (stereo not drawn) | Guinea pigs sensitized to ovalbumin (anaphylactic shock) | mg/kg | = | 0.31
Cl.Cl.O=c1n(CCCN2CCN(C(c3ccccc3)c3ccccc3)CC2)c2ccccc2n1Cc1ccccc1 | Guinea pigs sensitized to ovalbumin (anaphylactic shock) | mg/kg | = | 1.25
O=c1[nH]c2cc(C(F)(F)F)ccc2n1CCCN1CCN(C(c2ccccc2)c2ccccc2)CC1 | Guinea pigs sensitized to ovalbumin (anaphylactic shock) | mg/kg | = | 0.31
O=c1[nH]c2cc(Cl)ccc2n1CCN1CCN(C(c2ccccc2)c2ccccc2)CC1 | Guinea pigs sensitized to ovalbumin (anaphylactic shock) | mg/kg | = | 0.63
O=c1[nH]c2ccccc2n1CCCN1CCN(C(c2ccccc2)c2ccccc2)CC1 | Guinea pigs sensitized to ovalbumin (anaphylactic shock) | mg/kg | = | 0.1
O=c1[nH]c2cc(Cl)ccc2n1CCCN1CCN(C(c2ccccc2)c2ccccc2)CC1 | Guinea pigs sensitized to ovalbumin (anaphylactic shock) | mg/kg | = | 0.63
O=c1[nH]c2ccccc2n1CCCCN1CCN(C(c2ccccc2)c2ccccc2)CC1 | Guinea pigs sensitized to ovalbumin (anaphylactic shock) | mg/kg | = | 0.16
O=c1[nH]c2ccccc2n1CCN1CCN(C(c2ccccc2)c2ccccc2)CC1 | Guinea pigs sensitized to ovalbumin (anaphylactic shock) | mg/kg | = | 0.63
O=c1[nH]c2ccccc2n1CCCN1CCN(C(c2ccc(Cl)cc2)c2ccc(Cl)cc2)CC1 | Guinea pigs sensitized to ovalbumin (anaphylactic shock) | mg/kg | < | 2.5
CC(CN1CCN(C(c2ccc(F)cc2)c2ccc(F)cc2)CC1)Cn1c(=O)[nH]c2ccccc21 (stereo not drawn) | Guinea pigs sensitized to ovalbumin (anaphylactic shock) | mg/kg | = | 1.25
O=c1[nH]c2cccc(Cl)c2n1CCCN1CCN(C(c2ccccc2)c2ccccc2)CC1 | Guinea pigs sensitized to ovalbumin (anaphylactic shock) | mg/kg | ≥ | 2.5
O=c1[nH]c2ccccc2n1CCCCCN1CCN(C(c2ccccc2)c2ccccc2)CC1 | Guinea pigs sensitized to ovalbumin (anaphylactic shock) | mg/kg | = | 0.63
Cc1ccc(C(c2ccccc2)N2CCN(CCCn3c(=O)[nH]c4ccccc43)CC2)cc1 (stereo not drawn) | Guinea pigs sensitized to ovalbumin (anaphylactic shock) | mg/kg | < | 2.5
O=c1[nH]c2ccccc2n1CCN1CCN(C(c2ccc(F)cc2)c2ccc(F)cc2)CC1 [hemihydrate] | Guinea pigs sensitized to ovalbumin (anaphylactic shock) | mg/kg | = | 0.63
